Molecular target: T1, interleukin-2 alpha receptor (SYMANSIS, #4102H) to which a human immunoglobulin Fc region was linked (UniProt P01589 22-213, limits assumed)
T1 construct: Bought receptor-Fc, captured on anti-human immunoglobulin antibody; also called IL-2Rα; CD25; not shown: human immunoglobulin Fc region
T1 sequence (looked up): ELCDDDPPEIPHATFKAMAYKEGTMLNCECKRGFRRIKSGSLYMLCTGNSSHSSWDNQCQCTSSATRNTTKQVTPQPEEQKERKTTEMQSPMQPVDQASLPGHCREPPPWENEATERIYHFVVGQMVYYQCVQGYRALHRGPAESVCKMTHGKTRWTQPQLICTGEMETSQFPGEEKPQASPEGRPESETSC
Assay: SPR (Biacore T200); receptor-Fc captured on anti-human Ig CM5 chip, analog flowed; relative to analog 1 = 100%
Measured Quantity: Relative binding affinity (%)

# Binder, Quantity Unit, Relative binding affinity (%)
data = [
    ("interleukin-2 analog 98 (ligand) PTSSSTKKTQLQLEHLLLDLQMILNGINNYKNPKLTAMLTFKFYMPKKATELKHLQCLEEELKPLEEVLNLAQSKNFHFEPRDVISNINVFVLELKGSETTFMCEYADETATIVEFLNRWITFSQSIISTLT", "%", 7.7),
]

A = interleukin-2 analog 34 (ligand) PTSSSTKKTQLQLEHLLLDLQMILNGINNYKNPKLTAMLTFKFYMPKKATELKHLQCLEEELKPLEEVLNLAQSKNFHFRPRELISNINVIVLELKGSETTFMCEYADETATIVEFLNRWITFSQSIISTLT
B = interleukin-2 analog 35 (ligand) PTSSSTKKTQLQLEHLLLDLQMILNGINNYKNPKLTAMLTFKFYMPKKATELKHLQCLEEELKPLEEVLNLAQSKNFHLRPRDLISNINVIVFEFKGSETTFMCEYADETATIVEFLNRWITFSQSIISTLT
C = interleukin-2 analog 86 (ligand) PTSSSTKKTQLQLEHLRLDLEMILNGINNYKNPKLTRMLTFKFYMPKKATELKHLQCLEEELKPLEEVLNLAQSKNFHFEPRDVVSNINVFVLELKGSETTFMCEYADETATIVEFLNRWITFSQSIISTLT
Please list the entries, largest Relative binding affinity (%) first. Form entry: ranked labels (order as requested).
C, B, A
(C: 71.1%, B: 31.7%, A: 9.4%)
